Values compiled from patent US20240425571A1.

Target of assay: T1, human GARP (glycoprotein A repetitions predominant, LRRC32) on the cell surface (human, UniProt Q14392 20-662)
T1 construct: whole, on cells; also called hGARP; free GARP
T1 sequence (looked up): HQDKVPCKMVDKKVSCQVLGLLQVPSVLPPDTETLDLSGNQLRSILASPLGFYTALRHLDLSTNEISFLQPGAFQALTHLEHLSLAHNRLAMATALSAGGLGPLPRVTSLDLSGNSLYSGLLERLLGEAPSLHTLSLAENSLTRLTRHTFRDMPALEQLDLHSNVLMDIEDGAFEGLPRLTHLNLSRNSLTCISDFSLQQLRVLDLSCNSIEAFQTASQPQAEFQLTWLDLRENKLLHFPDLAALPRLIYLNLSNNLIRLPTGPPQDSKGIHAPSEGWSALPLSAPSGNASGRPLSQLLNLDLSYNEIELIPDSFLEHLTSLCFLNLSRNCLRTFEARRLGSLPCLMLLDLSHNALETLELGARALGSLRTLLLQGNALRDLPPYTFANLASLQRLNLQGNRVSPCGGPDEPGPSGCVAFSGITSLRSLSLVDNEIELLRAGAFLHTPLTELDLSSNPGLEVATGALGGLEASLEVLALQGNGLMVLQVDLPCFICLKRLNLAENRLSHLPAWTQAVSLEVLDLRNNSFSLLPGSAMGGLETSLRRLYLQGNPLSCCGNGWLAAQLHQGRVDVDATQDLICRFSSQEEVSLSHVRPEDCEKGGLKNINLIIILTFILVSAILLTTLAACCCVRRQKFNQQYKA
Measurement notes: FACS, Ag(+) cells, supernatant heated 70 C 5 min, 1 ug/ml
MFI listing for selected binders.
Measure name: MFI (MFI)

{"Binder": "huPIIO-1VH3VL3 (antibody, V domains shown, Humanized IgG from Expi293, tested as culture supernatant; also called H3L3; HuPIIO-1VH3/L3) VH: DVQLQESGPGLVKPSQTLSLTCTVSGYSITSDYAWNWIRQFPGNKLEWMGYISYSGSTSYTPSLKSRITISRDTSKNHFFLKLSSVTAADTATYYCAKSGGDYYGSSSYWYFDVWGQGTTVTVSS VL: DIVLTQSPSSLAVSAGERVTMSCKSSQSLLNSRSQKNYLAWYQQKPGQPPKLLIYGASTRGSGVPDRFSGSGSGTDFTLTISSVQAEDVAVYYCQNDHSYPFTFGSGTKLEIKR", "Observed result": 24.6}
{"Binder": "huPIIO-1VH2VL1 (antibody, V domains shown, Humanized IgG from Expi293; also called H2L1; HuPIIO-1VH2/L1) VH: QVQLQESGPGLVKPSQTLSLTCTVSGYSITSDYAWNWIRQFPGNKLEWMGYISYSGSTSYTPSLKSRITISRDTSKNHFFLKLSSVTAADTAVYYCAKSGGDYYGSSSYWYFDVWGQGTMVTVSS VL: DIVLTQSPSSLAVSLGERATMNCKSSQSLLNSRSQKNYLAWYQQKPGQPPKLLIYGASTRGSGVPDRFSGSGSGTDFTLTISSLQAEDVAVYYCQNDHSYPFTFGQGTKLEIKR", "Observed result": 25.1}
{"Binder": "huPIIO-1VH1VL3 (antibody, V domains shown, Humanized IgG from Expi293, tested as culture supernatant; also called H1L3; HuPIIO-1VH1/L3) VH: QVQLQESGPGLVKPSQTLSLTCTVSGYSITSDYAWNWIRQFPGNKLEWMGYISYSGSTSYTPSLKSRVTISRDTSKNHFSLKLSSVTAADTAVYYCAKSGGDYYGSSSYWYFDVWGQGTMVTVSS VL: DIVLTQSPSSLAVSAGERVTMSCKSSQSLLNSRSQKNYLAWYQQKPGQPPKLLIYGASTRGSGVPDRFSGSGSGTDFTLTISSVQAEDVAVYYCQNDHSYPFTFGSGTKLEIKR", "Observed result": 25.4}
{"Binder": "huPIIO-1VH4VL3 (antibody, V domains shown, Humanized IgG from Expi293, tested as culture supernatant; also called H4L3; HuPIIO-1VH4/L3) VH: DVQLQESGPGLVKPSQTLSLTCTVSGYSITSDYAWNWIRQFPGNKLEWMGYISYSGSTSYTPSLKSRITISRDTSKNHFFLQLSSVTAEDTATYYCAKSGGDYYGSSSYWYFDVWGQGTTVTVSS VL: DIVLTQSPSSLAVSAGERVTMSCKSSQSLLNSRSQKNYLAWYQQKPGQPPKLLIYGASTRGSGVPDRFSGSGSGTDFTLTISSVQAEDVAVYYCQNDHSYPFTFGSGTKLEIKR", "Observed result": 25.8}
{"Binder": "huPIIO-1VH2VL2 (antibody, V domains shown, Humanized IgG from Expi293, tested as culture supernatant; also called H2L2; HuPIIO-1VH2/L2) VH: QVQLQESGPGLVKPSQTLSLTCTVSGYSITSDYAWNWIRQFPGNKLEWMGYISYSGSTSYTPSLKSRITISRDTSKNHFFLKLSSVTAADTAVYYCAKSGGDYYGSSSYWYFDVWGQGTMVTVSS VL: DIVLTQSPSSLAVSLGERVTMNCKSSQSLLNSRSQKNYLAWYQQKPGQPPKLLIYGASTRGSGVPDRFSGSGSGTDFTLTISSVQAEDVAVYYCQNDHSYPFTFGQGTKLEIKR", "Observed result": 24.8}
